Recorded values, source patent US20170052184A1.

TEST TARGET: T1, HCV bt-141-161 (Peptide 2, HCVc 141-161) (Hepatitis C virus (numbering per HCV-1), biotin (carboxy-terminal per; N-terminal per))
T1 peptide: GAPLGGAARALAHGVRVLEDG
ASSAY PROCEDURE: EIA, captured mAb + biotin peptide
ASSAY READOUT: Reactivity (OD 492 nm) (OD units)

BINDER	ASSAY READOUT	UNITS LABEL	REPORTED VALUE
HCV 208B-672 (antibody, V domains shown) VH: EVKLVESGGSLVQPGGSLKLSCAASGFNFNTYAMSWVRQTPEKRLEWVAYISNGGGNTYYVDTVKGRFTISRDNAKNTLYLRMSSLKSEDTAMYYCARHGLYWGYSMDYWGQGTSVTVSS VL: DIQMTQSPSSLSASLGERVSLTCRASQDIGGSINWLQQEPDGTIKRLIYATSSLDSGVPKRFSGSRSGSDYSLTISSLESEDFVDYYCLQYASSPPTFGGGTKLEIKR	Reactivity (OD 492 nm)	OD units	2.79
HCV 208B-560 (antibody, V domains shown) VH: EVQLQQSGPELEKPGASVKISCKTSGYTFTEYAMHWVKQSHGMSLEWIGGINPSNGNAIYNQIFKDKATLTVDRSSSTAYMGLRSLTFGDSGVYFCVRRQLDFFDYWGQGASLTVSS VL: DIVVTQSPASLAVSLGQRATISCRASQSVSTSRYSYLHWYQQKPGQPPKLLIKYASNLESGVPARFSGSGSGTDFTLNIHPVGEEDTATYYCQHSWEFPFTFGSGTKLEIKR	Reactivity (OD 492 nm)	OD units	3.9
HCV 208A-222 (antibody, V domains shown) VH: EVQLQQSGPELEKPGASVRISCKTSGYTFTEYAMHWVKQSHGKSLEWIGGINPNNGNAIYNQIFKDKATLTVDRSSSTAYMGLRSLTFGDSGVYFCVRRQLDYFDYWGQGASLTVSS VL: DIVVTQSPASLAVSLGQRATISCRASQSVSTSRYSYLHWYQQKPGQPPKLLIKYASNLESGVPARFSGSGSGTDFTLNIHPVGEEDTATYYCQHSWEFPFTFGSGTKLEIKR	Reactivity (OD 492 nm)	OD units	2.7
HCV 208B-589 (antibody, V domains shown) VH: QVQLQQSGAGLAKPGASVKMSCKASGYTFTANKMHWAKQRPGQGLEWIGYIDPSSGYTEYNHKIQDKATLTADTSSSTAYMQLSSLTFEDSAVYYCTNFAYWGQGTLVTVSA VL: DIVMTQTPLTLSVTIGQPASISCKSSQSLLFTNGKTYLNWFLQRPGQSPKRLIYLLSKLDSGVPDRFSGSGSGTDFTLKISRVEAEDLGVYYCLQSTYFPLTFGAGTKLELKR	Reactivity (OD 492 nm)	OD units	0.1
HCV 208B-822 (antibody, V domains shown) VH: QVQLKQSGPGLVQPSQSLSITCTVSGFSLITYGVHWVRQSPGKGLEWLGVIWGGGSTGYNAAFVSRLNITKDNSKSQVFFKMNSLQPDDTAIYYCARNGGATVFDYWGQGTTLTVSS VL: DIVMTQSPATLSVTPGDRVSLSCRASQTISDYLHWYQQKSHESPRLLIKYASQSISGIPSRFSGSGSGSHFTLSINSVEPEDVGVYYCQNGHSFPWTFGGGTKLEIKR	Reactivity (OD 492 nm)	OD units	1.35
HCV 208B-612 (antibody, V domains shown) VH: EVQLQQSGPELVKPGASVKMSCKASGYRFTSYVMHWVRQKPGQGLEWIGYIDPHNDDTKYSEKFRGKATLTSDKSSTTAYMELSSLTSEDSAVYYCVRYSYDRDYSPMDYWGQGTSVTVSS VL: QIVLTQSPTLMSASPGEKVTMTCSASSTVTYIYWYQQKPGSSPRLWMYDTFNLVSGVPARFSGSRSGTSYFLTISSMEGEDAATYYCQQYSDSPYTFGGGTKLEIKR	Reactivity (OD 492 nm)	OD units	3.04
HCV 208B-1094 (antibody, V domains shown) VH: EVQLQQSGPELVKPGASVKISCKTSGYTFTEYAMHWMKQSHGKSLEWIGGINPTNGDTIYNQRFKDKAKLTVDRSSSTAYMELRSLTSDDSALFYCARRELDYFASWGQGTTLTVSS VL: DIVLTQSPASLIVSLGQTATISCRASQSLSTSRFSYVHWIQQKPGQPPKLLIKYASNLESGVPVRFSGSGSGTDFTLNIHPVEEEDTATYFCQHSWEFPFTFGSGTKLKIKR	Reactivity (OD 492 nm)	OD units	3.28
HCV 208B-911 (antibody, V domains shown) VH: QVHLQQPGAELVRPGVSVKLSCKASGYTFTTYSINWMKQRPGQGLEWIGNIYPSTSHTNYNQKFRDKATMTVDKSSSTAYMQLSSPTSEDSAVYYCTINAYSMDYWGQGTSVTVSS VL: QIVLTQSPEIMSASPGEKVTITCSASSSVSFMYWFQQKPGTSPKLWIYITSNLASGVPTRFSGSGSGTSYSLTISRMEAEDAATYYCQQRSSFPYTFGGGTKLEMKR	Reactivity (OD 492 nm)	OD units	0.09
HCV 208B-826 (antibody, V domains shown) VH: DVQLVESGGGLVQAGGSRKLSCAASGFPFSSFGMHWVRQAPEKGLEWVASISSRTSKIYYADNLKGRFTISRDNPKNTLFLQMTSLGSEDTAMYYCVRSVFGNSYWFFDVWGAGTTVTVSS VL: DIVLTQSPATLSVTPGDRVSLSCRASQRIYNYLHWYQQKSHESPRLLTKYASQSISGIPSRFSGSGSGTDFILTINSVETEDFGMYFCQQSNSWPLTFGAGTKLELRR	Reactivity (OD 492 nm)	OD units	1.35
HCV 208B-395 (antibody, V domains shown) VH: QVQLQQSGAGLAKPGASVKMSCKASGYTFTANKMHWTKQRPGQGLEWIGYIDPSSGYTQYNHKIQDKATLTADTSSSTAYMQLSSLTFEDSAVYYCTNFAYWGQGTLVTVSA VL: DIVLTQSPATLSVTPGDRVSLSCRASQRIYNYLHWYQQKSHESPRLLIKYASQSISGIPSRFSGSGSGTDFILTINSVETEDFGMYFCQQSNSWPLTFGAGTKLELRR	Reactivity (OD 492 nm)	OD units	0.13
